Each entry below carries its reported EC90.
system: Hepatitis C virus; assay: Inhibition of Hepatitis C virus genotype 1b NS3/4A protease V170A mutant; parameters: species or system Hepatitis C virus subtype 1b

Below, 3 molecules whose answers are already recorded.
molecule="CC(C)(C)NC(=O)N[C@H](C(=O)N1C[C@H]2[C@@H]([C@H]1C(=O)NC(CC1CCC1)C(=O)C(N)=O)C2(C)C)C(C)(C)C (some centres undefined)" reported_endpoint=EC90 result="7.7 µM"
molecule="CCCC(NC(=O)C1N(C(=O)[C@@H](NC(=O)[C@@H](NC(=O)c2cnccn2)C2CCCCC2)C(C)(C)C)CC12CCCCC2)C(=O)C(=O)NC1CC1 (some centres undefined)" reported_endpoint=EC90 result="8.7 µM"
molecule=CCC[C@H](NC(=O)[C@@H]1[C@H]2CCC[C@H]2CN1C(=O)[C@@H](NC(=O)[C@@H](NC(=O)c1cnccn1)C1CCCCC1)C(C)(C)C)C(=O)C(=O)NC1CC1 reported_endpoint=EC90 result="1.5 µM"

Next molecule, EC90 to be filled in.
Q: EC90 of CC[C@@H]1C[C@]1(NC(=O)[C@@H]1C[C@@H]2CN1C(=O)[C@H](C(C)(C)C)NC(=O)OCC(C)(C)CCCCc1cccc3c1CN(C3)C(=O)O2)C(=O)NS(=O)(=O)C1CC1 on Hepatitis C virus?
Ans: 0.01 µM
